All values here come from patent US5869641.

target: CD4 (extracellular domain, aa 1-370) (Homo sapiens) (UniProt P01730); assay: flow; settings: 2'-F on all C and U; +-0.08; multimeric SA-PE complex, 3.2 RNA per SA-PE; L200-CD4 beads, PBS, 2 mM MgCl2, BSA, room temp
Readout type: Kd (nM)
Value expressed in nM; do not type the unit.

Query: # value lookup — system CD4 (extracellular domain, aa 1-370) (Homo sapiens) (UniProt P01730), readout Kd, item GGGAGACAAGAAUAAACGCUCAANNNNNNNNNNNNNNNNNNNNNNNNNNNNNNNNNNNNNNNNUUCGACAGGAGGCUCACAACAGGC [15th round enriched RNA pool]
Result: 1.5
